Test system: NHBE (normal human bronchiolar epithelial cells)
Test: cells
Conditions: Homo sapiens, NHBE, read-out: IC50(uM) NHBE, phenylfuran-2-carboxamide SAR summary
measure: IC50

>>> recordedvalue("O=C(NC1CCCCC1)c1ccc([N+](=O)[O-])o1")
"24.9 µM"
>>> recordedvalue("Cc1cccc(NC(=O)c2ccc([N+](=O)[O-])o2)c1")
"15.8 µM"
>>> recordedvalue("O=C(Nc1ccc(Cl)cc1C(F)(F)F)c1ccc([N+](=O)[O-])o1")
"13.2 µM"

----------
Test system: H1650
Assay: Non Small Cell Lung Cancer proliferation assay (Alamar Blue reduction), H1650
Format: cell-based, human
Settings: Homo sapiens, NCI-H1650; primary screening; 10 μM compound in 1% DMSO (v/v); read-out: percentage inhibition H1650
In this section, each of the compounds is paired with its reported inhibition at 10 µM.
measure: inhibition at 10 µM (%)

>>> recordedvalue("Cc1c(Oc2ccccc2)nnn1-c1cnn(-c2ccccc2)c(=O)c1Br")
13
>>> recordedvalue("O=c1c(SCc2ccco2)c(SCc2ccco2)cnn1-c1ccccc1")
71
>>> recordedvalue("CCOC(=O)N(CCOc1cnn(-c2ccccc2)c(=O)c1)C(=O)OCC")
-7
>>> recordedvalue("O=C(CSc1cnn(-c2ccccc2)c(=O)c1Cl)c1ccc(Br)cc1")
-3
>>> recordedvalue("COc1ccc(-n2nc(C(=O)c3ccccc3)cc(-c3nc4ccccc4[nH]3)c2=N)cc1")
-7
>>> recordedvalue("O=c1c(Cl)c(Cl)cnn1-c1cccc(C(F)(F)F)c1")
100
>>> recordedvalue("COc1ccc(Sc2cnn(-c3ccccc3)c(=O)c2Cl)cc1")
7
>>> recordedvalue("O=c1c(Cl)c(N2CCCC2)cnn1-c1ccccc1")
-7
>>> recordedvalue("Cc1cccc(-n2ncc(SCc3ccccc3)c(SCc3ccccc3)c2=O)c1")
2

----------
Test system: H1118
Assay: Non Small Cell Lung Cancer proliferation assay (Alamar Blue reduction), H1118
Assay type: cell-based
Settings: Homo sapiens; H1118; 12 point doubling dilution 10 uM to 5 nM; 48 h treatment, alamar blue additional 48 h; read-out: IC50 H1118
Reported IC50 values for a set of compounds
measure: IC50

>>> recordedvalue("Cc1cc(-n2ncc(Cl)c(Cl)c2=O)ccc1Cl [compound 267065]")
"> 10 µM"
>>> recordedvalue("Cc1nc2cc(-n3ncc(Cl)c(Cl)c3=O)ccc2s1 [compound 267067]")
"> 10 µM"
>>> recordedvalue("Cc1ccc(-n2ncc(Cl)c(Cl)c2=O)cc1C [compound 257019]")
"0.94 µM"
>>> recordedvalue("Cc1cccc(-n2ncc(I)c(I)c2=O)c1 [compound 267085]")
"1.03 µM"
>>> recordedvalue("O=c1c(Br)c(Br)cnn1-c1cccc(C(F)(F)F)c1 [compound 267072]")
"1.21 µM"
>>> recordedvalue("O=c1c(Cl)c(Cl)cnn1-c1ccc2c(c1)CCC2 [compound 267066]")
"2.73 µM"
>>> recordedvalue("Cc1ccc(-n2ncc(Cl)c(Cl)c2=O)cc1Cl [compound 267070]")
"> 10 µM"
>>> recordedvalue("COc1nn(-c2cccc(C)c2)c(=O)c(Cl)c1Cl [compound 257028]")
"1.1 µM"
>>> recordedvalue("Cc1cc(-n2ncc(Cl)c(Cl)c2=O)ccc1Br [compound 267064]")
"> 10 µM"
>>> recordedvalue("O=c1c(Cl)c(Cl)cnn1Cc1ccccc1 [compound 267069]")
"3.21 µM"
>>> recordedvalue("COc1cccc(-n2ncc(Cl)c(Cl)c2=O)c1 [compound 267061]")
"0.4 µM"
>>> recordedvalue("O=c1c(Cl)c(Cl)cnn1-c1ccc2c(c1)OCCO2 [compound 267068]")
"0.48 µM"
>>> recordedvalue("O=c1c(Br)c(Br)cnn1-c1ccccc1 [compound 257015]")
"0.37 µM"
>>> recordedvalue("Cc1cccc(NC(=O)c2ccc([N+](=O)[O-])o2)c1 [compound 71762]")
"0.38 µM"
>>> recordedvalue("NCCCOc1cccc(-n2ncc(Br)c(Br)c2=O)c1 [compound 273634]")
"0.57 µM"
>>> recordedvalue("O=c1c(Cl)c(Cl)cnn1-c1ccccn1 [compound 267090]")
"0.15 µM"
>>> recordedvalue("Cc1cccc(-n2ncc(Cl)c(Cl)c2=O)c1C [compound 257018]")
"0.54 µM"
>>> recordedvalue("CCCCc1cccc(-n2ncc(Cl)c(Cl)c2=O)c1 [compound 267063]")
"6.41 µM"
>>> recordedvalue("COc1cccc(-n2ncc(Br)c(Br)c2=O)c1 [compound 267083]")
"0.27 µM"
>>> recordedvalue("Cc1ccc(-n2ncc(Cl)c(Cl)c2=O)cc1 [compound 257016]")
"0.54 µM"
>>> recordedvalue("COCCOc1cccc(-n2ncc(Br)c(Br)c2=O)c1 [compound 267084]")
"0.23 µM"

----------
The following molecules are shown together with reported IC50 at 72 h values.
Test: in vitro
Conditions: human, CytoTox (uM) WI-38
Excerpt: NHBE (normal human bronchiolar epithelial cells) are primary cells obtained from donor lungs and commercially available from Cambrex. The HPL1D (human peripheral lung epithelial) cell line has been immortalized with the SV40 large T-antigen. WI-38: human lung fibroblast cell line. HPLID, NHBE and WI-38 cells will serve as controls in the chemical screens. WT: wildtype; WT*: over-expressed wildtype. […]
measure: IC50 at 72 h (µM)

>>> recordedvalue("COc1cccc(-n2ncc(Br)c(Br)c2=O)c1")
2.6
>>> recordedvalue("Cc1cccc(-n2ncc(Br)c(Br)c2=O)c1")
2.61
>>> recordedvalue("O=c1c(Cl)c(Cl)cnn1-c1ccccn1")
1.19

----------
Tested on: H2122
Test: Dose response study (Alamar Blue), H2122
Type: cell-based
Conditions: Homo sapiens, NCI-H2122; H2122; 12 point doubling dilution 10 uM to 5 nM; 48 h treatment, alamar blue additional 48 h; read-out: IC50 H2122
measure: IC50 (nM)

>>> recordedvalue("O=c1c(Br)c(Br)cnn1-c1ccccc1")
1260
>>> recordedvalue("NCCCOc1cccc(-n2ncc(Br)c(Br)c2=O)c1")
1420
>>> recordedvalue("COc1nn(-c2cccc(C)c2)c(=O)c(Cl)c1Cl")
4040
>>> recordedvalue("Cc1cccc(NC(=O)c2ccc([N+](=O)[O-])o2)c1")
4830
>>> recordedvalue("Cc1cccc(-n2ncc(Cl)c(Cl)c2=O)c1C")
2160
>>> recordedvalue("Cc1ccc(-n2ncc(Cl)c(Cl)c2=O)cc1")
2070
>>> recordedvalue("O=c1c(Br)c(Br)cnn1-c1cccc(C(F)(F)F)c1")
4610
>>> recordedvalue("Cc1cccc(-n2ncc(Br)c(Br)c2=O)c1")
1260

----------
Tested on: H2030
Test: Non Small Cell Lung Cancer proliferation assay (Alamar Blue reduction), H2030
Type: cell-based, human
Conditions: Homo sapiens, NCI-H2030, dose response 10 M to 5 nM; IC50; read-out: Dose Response (uM) H2030
Description: These cells have a doubling time of 1-2 days. All cell types are adherent and grow in colonies. The cells should be kept at a density between 50,000 cells/mL -500,000 cells/mL to provide for optimum growth and adequate nutrition. […] After drug treatment, cytotoxicity is measured by Alamar Blue reduction. […] The final step in the assay is to measure the amount of Alamar Blue reduction. […] The Alamar Blue fluorescence is measured at an excitation of 530 nm and emission of 590 nm. […]
Here the recorded IC50 is given for each entry.
measure: IC50

>>> recordedvalue("CCN(CC)c1cnn(-c2cccc(C)c2)c(=O)c1Cl [compound 267074]")
"> 10 µM"
>>> recordedvalue("O=c1c(Cl)c(Cl)cnn1-c1ccc2c(c1)OCCO2 [compound 267068]")
"1.23 µM"
>>> recordedvalue("Cc1cccc(-n2ncc(N=[N+]=[N-])c(Cl)c2=O)c1 [compound 267082]")
"> 10 µM"
>>> recordedvalue("CCc1cccc(-n2ncc(Cl)c(Cl)c2=O)c1 [compound 267062]")
"0.72 µM"
>>> recordedvalue("Cc1ccc(-n2ncc(Cl)c(Cl)c2=O)cc1C [compound 257019]")
"0.53 µM"
>>> recordedvalue("CN/N=C1\\C=NN(c2ccc(C)cc2)C(=O)C1Cl (stereo not shown) [compound 257025]")
"> 10 µM"
>>> recordedvalue("O=c1c(Cl)c(Cl)cnn1-c1ccccn1 [compound 267090]")
"0.41 µM"
>>> recordedvalue("Cc1nc2cc(-n3ncc(Cl)c(Cl)c3=O)ccc2s1 [compound 267067]")
"3.04 µM"
>>> recordedvalue("CCN(CC)c1c(Cl)cnn(-c2cccc(C)c2)c1=O [compound 267076]")
"> 10 µM"
>>> recordedvalue("O=c1c(Br)c(Br)cnn1-c1ccccc1 [compound 257015]")
"0.39 µM"

----------
Test system: H1650
Test: Non Small Cell Lung Cancer proliferation assay (Alamar Blue reduction), H1650
Type: cell-based, human
Conditions: Homo sapiens, NCI-H1650, dose response 10 M to 5 nM; IC50; read-out: Dose Response (uM) H1650
Field: label. Allowed values: yes (IC50 < 2 µM) or no (IC50 >= 2 µM).

>>> assignedclass("Cc1ccc(-n2ncc(Cl)c(Cl)c2=O)cc1C")
"no"
>>> assignedclass("Cc1cccc(-n2ncc(Br)c(Br)c2=O)c1")
"yes"
>>> assignedclass("O=c1c(Cl)c(Cl)cnn1-c1ccccc1")
"no"
>>> assignedclass("CCCCc1cccc(-n2ncc(Cl)c(Cl)c2=O)c1")
"no"
>>> assignedclass("COCCOc1cccc(-n2ncc(Br)c(Br)c2=O)c1")
"yes"
>>> assignedclass("N/N=C1\\C=NN(c2ccccc2)C(=O)C1Cl (centres unmarked)")
"no"
>>> assignedclass("O=c1c(Cl)c(SCc2ccccc2)cnn1-c1ccccc1")
"no"
>>> assignedclass("O=c1c(Cl)c(Cl)cnn1Cc1ccccc1")
"no"
>>> assignedclass("CCN(CC)c1c(Cl)cnn(-c2cccc(C)c2)c1=O")
"no"
>>> assignedclass("Cc1cccc(-n2ncc(N=[N+]=[N-])c(Cl)c2=O)c1")
"no"
>>> assignedclass("Cc1ccc(-n2ncc(Cl)c(Cl)c2=O)cc1")
"no"
>>> assignedclass("Cc1cccc(-n2nc(OCCCNC(=O)CCC(=O)O)c(Cl)c(Cl)c2=O)c1")
"no"
>>> assignedclass("O=c1c(Cl)c(Cl)cnn1-c1cccc(C(F)(F)F)c1")
"yes"
>>> assignedclass("O=c1c(Cl)c(Cl)cnn1-c1ccc(C(F)(F)F)cc1")
"no"
>>> assignedclass("Cc1cccc(-n2ncc(Cl)c(Cl)c2=O)c1C")
"no"
>>> assignedclass("CCc1cccc(-n2ncc(Cl)c(Cl)c2=O)c1")
"no"
>>> assignedclass("COc1cccc(-n2ncc(Cl)c(Cl)c2=O)c1")
"no"
>>> assignedclass("O=c1c(Cl)c(Cl)cnn1-c1c(Cl)cc(C(F)(F)F)cc1Cl")
"no"
>>> assignedclass("Cc1cc(C)cc(-n2ncc(Cl)c(Cl)c2=O)c1")
"no"
>>> assignedclass("NCCCOc1cccc(-n2ncc(Br)c(Br)c2=O)c1")
"yes"
>>> assignedclass("CCOc1cnn(-c2cccc(C)c2)c(=O)c1Cl")
"no"
>>> assignedclass("Cc1ccc(-n2ncc(Cl)c(Cl)c2=O)cc1Cl")
"no"
>>> assignedclass("Cc1cccc(-n2ncc(I)cc2=O)c1")
"no"
>>> assignedclass("COc1cccc(-n2ncc(Br)c(Br)c2=O)c1")
"yes"
>>> assignedclass("O=C(O)CCC(=O)NCCCOc1cccc(-n2ncc(Br)c(Br)c2=O)c1")
"no"
